Target: human recombinant HDAC6 (Homo sapiens, UniProt Q9UBN7)
Sequence (Q9UBN7 1-1215): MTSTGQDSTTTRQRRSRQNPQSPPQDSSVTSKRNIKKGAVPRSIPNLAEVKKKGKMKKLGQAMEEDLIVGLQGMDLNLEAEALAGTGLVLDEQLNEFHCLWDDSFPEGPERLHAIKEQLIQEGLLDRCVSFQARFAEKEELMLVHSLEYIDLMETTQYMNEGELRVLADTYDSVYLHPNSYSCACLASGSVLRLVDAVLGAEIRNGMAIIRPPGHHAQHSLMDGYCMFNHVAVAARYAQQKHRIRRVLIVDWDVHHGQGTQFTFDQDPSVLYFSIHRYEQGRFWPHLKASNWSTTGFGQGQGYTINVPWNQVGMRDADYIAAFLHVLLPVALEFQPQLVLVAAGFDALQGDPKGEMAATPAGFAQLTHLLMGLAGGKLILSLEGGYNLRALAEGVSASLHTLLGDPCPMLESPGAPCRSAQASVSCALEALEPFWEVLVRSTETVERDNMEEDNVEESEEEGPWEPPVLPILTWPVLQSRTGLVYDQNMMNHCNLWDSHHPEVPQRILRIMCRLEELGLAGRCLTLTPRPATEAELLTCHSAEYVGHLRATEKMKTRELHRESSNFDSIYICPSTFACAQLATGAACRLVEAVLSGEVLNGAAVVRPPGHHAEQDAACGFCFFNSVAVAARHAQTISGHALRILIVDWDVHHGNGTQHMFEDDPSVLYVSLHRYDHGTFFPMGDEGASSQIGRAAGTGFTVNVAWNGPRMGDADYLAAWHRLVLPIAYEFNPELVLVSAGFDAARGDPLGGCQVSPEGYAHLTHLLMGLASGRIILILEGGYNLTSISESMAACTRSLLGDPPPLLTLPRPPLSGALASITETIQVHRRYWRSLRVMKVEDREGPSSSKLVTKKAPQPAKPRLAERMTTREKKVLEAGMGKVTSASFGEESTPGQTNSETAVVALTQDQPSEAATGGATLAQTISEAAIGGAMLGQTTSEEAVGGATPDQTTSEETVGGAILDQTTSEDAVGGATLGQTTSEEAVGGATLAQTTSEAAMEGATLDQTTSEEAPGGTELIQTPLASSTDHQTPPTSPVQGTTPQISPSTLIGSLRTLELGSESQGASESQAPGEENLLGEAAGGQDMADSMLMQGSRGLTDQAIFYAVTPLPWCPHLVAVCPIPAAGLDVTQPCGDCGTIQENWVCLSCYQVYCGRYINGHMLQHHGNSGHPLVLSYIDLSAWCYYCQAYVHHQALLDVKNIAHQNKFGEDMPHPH
Experiment: HDAC enzyme activity inhibition assay (HDAC Fluorimetric Drug Discovery Kit), HDAC6
Conditions: human recombinant HDAC6, same protocol as HDAC1
pIC50: −log10 of the molar value.
metric: pIC50

                              moleculesmiles  observedvalue
 0  CC(=O)N1CC(F)(C(=O)N(Cc2ccc(-c3nnc(C(F)F)o3)cn2)c2cccc(F)c2)C1           7.75
 1  O=C(N(Cc1ccc(-c2nnc(C(F)F)o2)cn1)c1ccccc1)C1(F)CCN(C2CCCC2)CC1           7.25
 2  O=C(N(Cc1ccc(-c2nnc(C(F)F)o2)cn1)c1cccc(F)c1)C1(F)CN(C2CCC(F)(F)CC2)C1           7.44
 3  CCC(=O)N1CC(F)(C(=O)N(Cc2ccc(-c3nnc(C(F)F)o3)cn2)c2cccc(F)c2)C1           7.63
 4  CCN1CC(F)(C(=O)N(Cc2ccc(-c3nnc(C(F)F)o3)cn2)c2ccccc2)C1           7.30
 5  CN(C)CCC(=O)N1CC(F)(C(=O)N(Cc2ccc(-c3nnc(C(F)F)o3)cn2)c2cccc(F)c2)C1           7.51
 6  O=C(N(Cc1ccc(-c2nnc(C(F)F)o2)cn1)c1ccccc1)C1(F)CN(C2CCOCC2)C1           7.36
 7  CN1CCC(F)(C(=O)N(Cc2ccc(-c3nnc(C(F)F)o3)cc2F)c2ccccc2)CC1           6.87
 8  CCCN1CCC(N2CC(F)(C(=O)N(Cc3ccc(-c4nnc(C(F)F)o4)cn3)c3ccccc3)C2)CC1           7.61
 9  CCCN1CCC(N2CC(F)(C(=O)N(Cc3ccc(-c4nnc(C(F)F)o4)cn3)c3cccc(F)c3)C2)CC1           7.64
10  O=C(N(Cc1ccc(-c2nnc(C(F)F)o2)cn1)c1cccc(F)c1)C1(F)CN(CC2CCOCC2)C1           7.38
11  CN1CCC(F)(C(=O)N(Cc2ccc(-c3nnc(C(F)F)o3)cn2)c2cccc(F)c2)CC1           7.41
12  CCCCN1CC(N2CC(F)(C(=O)N(Cc3ccc(-c4nnc(C(F)F)o4)cn3)c3ccccc3)C2)C1           7.56
13  O=C(C1CCCC1)N1CC(F)(C(=O)N(Cc2ccc(-c3nnc(C(F)F)o3)cn2)c2cccc(F)c2)C1           7.75
14  O=C(C1CC1)N1CC(F)(C(=O)N(Cc2ccc(-c3nnc(C(F)F)o3)cn2)c2cccc(F)c2)C1           7.46
15  O=C(N(Cc1ccc(-c2nnc(C(F)F)o2)cn1)c1cccc(F)c1)C1(F)CCN(C2COC2)CC1           7.38
16  CC(C)C(=O)N1CCC(F)(C(=O)N(Cc2ccc(-c3nnc(C(F)F)o3)cc2F)c2ccccc2)CC1           6.55
17  CN1CC(F)(C(=O)N(Cc2ccc(-c3nnc(C(F)F)o3)cn2)c2cccc(F)c2)C1           7.07
18  O=C(N(Cc1ccc(-c2nnc(C(F)F)o2)cn1)c1ccccc1)C1(F)CN(CC2CCOCC2)C1           7.24
19  CC(C)N1CC(N2CCC(F)(C(=O)N(Cc3ccc(-c4nnc(C(F)F)o4)cn3)c3cccc(F)c3)CC2)C1           7.74
20  CCCN1CC(F)(C(=O)N(Cc2ccc(-c3nnc(C(F)F)o3)cn2)c2cccc(F)c2)C1           7.46
